test system: MDA-N; assay: NCI tumour cell line growth inhibition, 48 h

compound: O=C1CSCc2sccc21
TGI: > 100 µM
//
compound: CCCCCCCCCCCCCCCCCc1cccc(OCOCCOC)c1C(=O)O
TGI: 38.8 µM
//
compound: O=C(O)CCCC(=O)Nn1c(Cc2ccc(Cl)cc2)n[nH]c1=O
TGI: > 100 µM
//
compound: CC(C)(C)OC(=O)NC(CCCCNC(=O)OCc1ccccc1)C(=O)NCCNc1ccc(NCCNC(=O)C(CCCCNC(=O)OCc2ccccc2)NC(=O)OC(C)(C)C)c2c1C(=O)c1ccccc1C2=O (stereo not given)
TGI: > 100 µM
//
compound: Clc1ccccc1/C=c1\nc(-c2ccccc2)n2c1nc1ccccc12
TGI: > 100 µM
//
compound: C#C[C@]1(O)CC[C@H]2[C@@H]3CCC4=C/C(=N/OCCN(C)C)CC[C@]4(C)[C@H]3CC[C@@]21C
TGI: 35.1 µM
//
compound: O=C(O)c1ccc(C(=O)c2ccccc2C(=O)O)cc1C(=O)O
TGI: > 100 µM
//
compound: COC(=O)/C=C1\C(=O)N(C(C)=O)c2ccc(Br)cc21
TGI: 24 µM
//
compound: CC(=O)C1=C(C)N2C(=NC3=C(CCc4ccccc43)C2c2ccc(F)cc2)S1 (stereo not given)
TGI: > 100 µM
//
compound: CCc1n[nH]c(=O)n1/N=C/c1ccccc1O
TGI: > 100 µM

* * *

compounds and their reported TGI
test system: SK-OV-3 ovarian; experiment: NCI tumour cell line growth inhibition, 48 h

compound: Cc1ccn2c(=O)cc(CN3CCOCC3)nc2c1
TGI: > 100 µM
--
compound: Cn1c(=O)[nH]c2nncnc2c1=O
TGI: 498 µM
--
compound: CC1=CC(=O)CC(C)(C)C1/C=C/C(C)=C/C=C/C(C)=C/C=C/C=C(C)/C=C/C=C(C)/C=C/C1C(C)=CC(=O)CC1(C)C (stereo unspecified)
TGI: > 100 µM
--
compound: CCC(C)CCOC(=O)c1ccc(N=Cc2ccc(C=Nc3ccc(C(=O)OCCC(C)CC)cc3)cc2)cc1 (stereo unspecified)
TGI: > 100 µM
--
compound: N#Cc1nc(CCN2C(=O)c3ccccc3C2=O)oc1N
TGI: > 100 µM
--
compound: Cc1cc2nc3c4cc(O)ccc4n(CCN(C)C)c3nc2cc1C
TGI: > 61 µM
--
compound: OCCN1CCN(CCCN2c3ccccc3Sc3ccc(Cl)cc32)CC1
TGI: 10.2 µM
--
compound: COc1c(CC=C(C)C)c(O)c(C(CC(C)C)c2c(O)c3c(c(C(C)=O)c2O)OC(C(C)(C)O)C3)c(O)c1C(C)=O (stereo unspecified)
TGI: > 12.5 µM
--
compound: O=C(NCCCCCCCCCCCCNC(=O)c1cccc2ccccc12)c1cccc2ccccc12
TGI: > 66.8 µM
--
compound: OC(c1ccc(F)cc1)C(F)(F)c1nc2ccccc2o1 (stereo unspecified)
TGI: > 100 µM
--
compound: CC(=O)Nc1c(S(=O)(=O)c2ccccc2)c(C)c(C)n1CCN(C)C
TGI: > 100 µM
--
compound: OCc1cn(C(c2ccccc2)(c2ccccc2)c2ccccc2)cn1
TGI: > 100 µM
--
compound: O=c1c2c(=NCCN3CCCC3)cc3c(=O)n(CCCN4CCOCC4)c(=O)c4c(-c5ccc(CN6CCCC6)cc5)cc(c(O)n1CCCN1CCOCC1)c2c4-3
TGI: 1.43 µM
--
compound: COc1ccc(C(=O)C2=NON3OC23C(=O)c2ccc(OC)cc2)cc1 (stereo unspecified)
TGI: 33.7 µM
--
compound: Cn1cnc([N+](=O)[O-])c1Sc1nc(N)nc2c1ncn2C1OC(CO)C(O)C1O (stereo unspecified)
TGI: 45.5 µM
--
compound: c1ccc2c(Cc3[nH]c4ccccc4c3Cc3c[nH]c4ccccc34)c[nH]c2c1
TGI: 15.4 µM
--
compound: Cn1c2c(c3ccccc31)CCN(CCCCN1CCCCC1)C2=O
TGI: > 100 µM
--
compound: NS(=O)(=O)c1ccc(Nc2cc(-c3cccc(O)c3)[nH]n2)cc1
TGI: > 25 µM
--
compound: Cn1cc(C(=O)c2ccccc2)c2ccccc2c1=O
TGI: > 100 µM
--
compound: CC(C)(C)OC(=O)n1c2ccccc2c2c(=O)nc(N3CCCCC3)sc21
TGI: > 100 µM
--
compound: N.N.N.N.N.[Co+3].[I-].[N-]=[N+]=[N-]
TGI: > 100 µM

* * *

tested on: NCI-H522 lung; assay: NCI tumour cell line growth inhibition, 48 h; in the data active means GI50 below about 0.43 µM; inactive means the rest
Possible outcomes: active, inactive

compound: CCSCC1CC(O)(c2ccccc2)CC(c2ccc(F)cc2)O1 (stereo not drawn)
test system: NCI-H522 lung
class: inactive

compound: O=C(CC(Cl)=C(Cl)Cl)Nc1ccccc1
test system: NCI-H522 lung
class: inactive

compound: CCN(CC)c1ccc(/C=N/NC(=O)CSc2nc3ccccc3c(=O)n2CCc2ccc(S(N)(=O)=O)cc2)c(O)c1
test system: NCI-H522 lung
class: inactive

compound: N.N.N.N.N.[Co+3].[I-].[N-]=[N+]=[N-]
test system: NCI-H522 lung
class: inactive

compound: COc1ccc(C2=N[C@@H](Cc3ccccc3)C(=O)Nc3ccsc32)cc1
test system: NCI-H522 lung
class: inactive

compound: CCCCCCCCCCCCOC1C(CNC(=O)C2OC3OC(C)(C)OC3C2NC(=O)Nc2ccc(CC(=O)OC)cc2)OC2OC(C)(C)OC21 (stereo not drawn)
test system: NCI-H522 lung
class: inactive

compound: O=Nc1ccc(O)c(=O)cc1
test system: NCI-H522 lung
class: active

compound: C=C1CC[C@@H]2[C@](C)(COC(C)=O)[C@H](OC(C)=O)CC[C@@]2(C)[C@@H]1CC(Nc1ccc(S(=O)(=O)NC(C)=O)cc1)C1=CCOC1=O (stereo partly drawn)
test system: NCI-H522 lung
class: inactive

compound: COc1ccc2c(c1)/C(=C\c1c(-c3cc(OC)ccc3OC)nc3sc(C)cn13)C(=O)N2C
test system: NCI-H522 lung
class: inactive

compound: Fc1cc2[nH]ncc2c2c3c(c(-c4cn[nH]c4C(F)(F)F)nc12)CCCC3
test system: NCI-H522 lung
class: inactive

compound: CC(N)C(Cc1ccc(Cl)cc1)c1ccc(Cl)cc1 (stereo not drawn)
test system: NCI-H522 lung
class: inactive

compound: NS(=O)(=O)c1ccc(Nc2cc(-c3cccc(O)c3)[nH]n2)cc1
test system: NCI-H522 lung
class: inactive

compound: O=S(=O)(NCCCNc1nccc(-c2c(-c3ccc(O)cc3)nc3sccn23)n1)c1ccc(F)cc1
test system: NCI-H522 lung
class: inactive

compound: CC(=O)Nc1ccc2c(c1)C(c1ccccc1Cl)=Nc1c(n[nH]c1C)N2
test system: NCI-H522 lung
class: inactive

compound: COc1cc(Nc2nc3cc(N)cc(N)c3nc2-c2ccccc2)cc(OC)c1OC
test system: NCI-H522 lung
class: inactive

compound: O=C(Nc1ccc2[nH]nc(-c3ccncc3)c2c1)[C@@H]1CCN(CC(=O)N2CCN(c3ccc(-c4ncccn4)cc3)CC2)C1
test system: NCI-H522 lung
class: inactive

compound: Cc1nc([P+](c2ccccc2)(c2ccccc2)c2ccccc2)c(Sc2sc(-c3ccccc3)nc2[P+](c2ccccc2)(c2ccccc2)c2ccccc2)o1
test system: NCI-H522 lung
class: inactive

compound: CCN(CCCN(C)C)Cc1cc(I)cc(C)c1O
test system: NCI-H522 lung
class: inactive

* * *

system: SN12C renal; test: NCI tumour cell line growth inhibition, 48 h
molecules and their reported GI50

molecule: Fc1cccc(COc2ccc(Nc3ncnc4sc(-c5cccs5)cc34)cc2Cl)c1
GI50: 9.2 µM

molecule: N.N.N.N.N.[Co+3].[I-].[N-]=[N+]=[N-]
GI50: > 100 µM

molecule: O=C(CC(Cl)=C(Cl)Cl)Nc1ccccc1
GI50: > 100 µM

molecule: CCC(C)[C@H]1O[C@]2(CC[C@@H]1C)C[C@@H]1C[C@@H](C/C=C(\C)[C@@H](OC3C[C@H](OC)C(O[C@H]4C[C@H](OC)[C@@H](O)[C@H](C)O4)[C@H](C)O3)[C@@H](C)/C=C/C=C3\CO[C@@H]4[C@H](O)C(C)=C[C@@H](C(=O)O1)[C@]34O)O2 (some centres not stated)
GI50: 3.08 µM

molecule: COC[C@@H](N=C1NC(=O)/C(=C/c2ccc3ncccc3c2)S1)c1ccccc1
GI50: 8.52 µM

molecule: COc1ccc(/C=C/C(=O)c2cc(OC)c(OC)c(OC)c2)cc1OCC(=O)Nc1nc2ccc(OC(F)(F)F)cc2s1
GI50: 1.74 µM

molecule: NS(=O)(=O)c1ccc(Nc2cc(-c3cccc(O)c3)[nH]n2)cc1
GI50: > 25 µM

* * *

tested on: HT29 colon; assay: NCI tumour cell line growth inhibition, 48 h
Please note: 1 applies when TGI is 20 µM or greater, and 0 applies otherwise.

compound: O=C1CSCc2sccc21
class: 1
//
compound: CC[C@H](C)[C@H]1NC(=O)[C@@H](NC(=O)[C@@H](CC(C)C)N(C)C(=O)C2CCCN2C(=O)[C@H](C)O)[C@@H](C)OC(=O)[C@H](Cc2ccc(OC)cc2)N(C)C(=O)[C@@H]2CCCN2C(=O)[C@H](CCCCNC(=O)OCc2ccccc2)NC(=O)[C@H](C)C(=O)[C@H](C(C)C)OC(=O)C[C@@H]1O (some centres not stated)
class: 0
//
compound: CC(=O)O[C@H]1C(=O)[C@@]2(C)C(C(OC(=O)c3ccccc3)[C@]3(O)C[C@H](OC(=O)C(OC(=O)CCCC(=O)NCCCN(C)C)C(NC(=O)c4ccccc4)c4ccccc4)C(C)=C1C3(C)C)C1(OC(C)=O)COC1C[C@@H]2O (some centres not stated)
class: 0
//
compound: CC(C)(C)OC(=O)n1c2ccccc2c2c(=O)nc(N3CCCCC3)sc21
class: 1
//
compound: CC(C)=CCC[C@]1(C)C=Cc2c(O)c3c(c(CC=C(C)C)c2O1)O[C@]12C(=C[C@@H]4CC1C(C)(C)O[C@@]2(C/C=C(/C)C(=O)O)C4=O)C3=O
class: 0
//
compound: CN(C)c1ccc(C=Nc2ccc(-c3nc4ccccc4[nH]3)cc2)cc1
class: 1
//
compound: COc1ccc(C2=N[C@@H](Cc3ccccc3)C(=O)Nc3ccsc32)cc1
class: 0
//
compound: N#CC12Cc3cc4c(cc3-c3cccc(c31)CCN2C(=O)c1ccccc1)OCO4 (configuration not stated)
class: 1
//
compound: CC(C)(Br)C(=O)N1CCN(C(c2ccccc2)c2ccccc2)CC1
class: 1
//
compound: COc1ccc(N=N/C(=N/NC(=O)c2ccc(C)cc2)c2ccc(N(CCC#N)CCC#N)cc2OC)cc1
class: 1
//
compound: Cc1ccc(NC(Nc2ccc(C)cc2C)=C(C(Cl)=C(Cl)Cl)[N+](=O)[O-])c(C)c1
class: 1
//
compound: CCCCCCCCCCCCCCCCCc1cccc(OCOCCOC)c1C(=O)O
class: 1
//
compound: Cc1cc2nc3c4cc(O)ccc4n(CCN(C)C)c3nc2cc1C
class: 0
//
compound: O=C1C2Nc3ccccc3SC2C(=O)N1c1ccc(Br)cc1 (configuration not stated)
class: 1
//
compound: CC(=O)Nc1ccc2c(c1)C(c1ccccc1Cl)=Nc1c(n[nH]c1C)N2
class: 1
//
compound: O=P12N(CCN1c1ccccc1)CCN2c1ccccc1
class: 1
